// data source = patent US12649749B2

Listed here: items and their measured IC50.
Target: Lp-PLA2 enzyme in human plasma (Homo sapiens)
Construct: from tissue; host or cells: pooled (mixed) human plasma
Sequence (Q13093 22-441): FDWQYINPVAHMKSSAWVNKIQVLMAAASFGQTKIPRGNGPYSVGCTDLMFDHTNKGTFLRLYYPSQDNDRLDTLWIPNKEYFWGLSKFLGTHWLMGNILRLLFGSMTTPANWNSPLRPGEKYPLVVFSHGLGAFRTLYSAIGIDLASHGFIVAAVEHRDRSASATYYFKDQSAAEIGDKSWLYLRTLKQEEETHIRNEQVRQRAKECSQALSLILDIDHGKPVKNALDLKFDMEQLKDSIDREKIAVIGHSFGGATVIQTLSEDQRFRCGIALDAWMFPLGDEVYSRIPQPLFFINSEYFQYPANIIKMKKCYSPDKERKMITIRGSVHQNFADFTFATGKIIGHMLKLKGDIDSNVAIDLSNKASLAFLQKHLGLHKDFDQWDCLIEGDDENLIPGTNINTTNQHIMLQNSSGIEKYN
Assay: Human plasma Lp-PLA2 assay (Thio-PAF assay)
Assay type: biochemical
Conditions: mixed human plasma; 2-thio-PAF substrate with CPM; 30 min pre-incubation; fluorescence ex 380/em 485; read-out: Thio-PAF (pIC50) (converted)
Write it as a number; the unit nM goes unstated.

compound	value
O=c1nc(OCc2cc(F)c(F)cc2F)cc2n1CC[C@@H]1COCCN21 [Compound 3]	316
Cc1ccc(Oc2c(F)cc(COc3cc4n(c(=O)n3)CC[C@H]3COCCN43)cc2F)cn1 [Compound 18]	10
O=c1nc(OCc2cc(F)c(Oc3ccc(C(F)(F)F)cc3)c(F)c2)cc2n1CC[C@@H]1COCCN21 [Compound 11]	7.94
O=c1nc(OCc2cc(F)c(Oc3ccc(C(F)(F)F)nc3)c(F)c2)cc2n1CC[C@H]1COCCN21 [Compound 17]	12.6
Cc1cc(Oc2c(F)cc(COc3cc4n(c(=O)n3)CC[C@H]3COCCN43)cc2F)ccn1 [Compound 16]	7.94

Any idea what its IC50 is? The compound is O=c1nc(OCc2cc(F)c(Oc3cccc(C(F)(F)F)c3)c(F)c2)cc2n1CC[C@H]1COCCN21 [Compound 19] 7.94

What value of IC50 has been reported for the following compound? O=c1nc(OCc2cc(F)c(F)c(F)c2)cc2n1CC[C@H]1COCCN21 [Compound 13] 79.4

Endpoint output: IC50 of O=c1nc(OCc2cc(F)c(Oc3ccc(C(F)(F)F)cc3)c(F)c2)cc2n1CC[C@H]1COCCN21 [Compound 20] . Value? 12.6
